Biological target: ERBB4 (human)
Experiment: radiometric filter-binding kinase assay
Settings: compound 10.0 µM
valueKind: residual activity (%)

Study these solved cases before continuing.
[
  {
    "compound": "Cc1ccc2c(c1)C(=O)[C@@]1(O)CCN(c3ccccc3)C1=N2",
    "unitsSymbol": "%",
    "residual activity": 87
  },
  {
    "compound": "O=C(NOC[C@H](O)CO)c1ccc(F)c(F)c1Nc1ccc(I)cc1Cl",
    "unitsSymbol": "%",
    "residual activity": 87
  },
  {
    "compound": "CCCC(CCC)C(=O)O",
    "unitsSymbol": "%",
    "residual activity": 80
  },
  {
    "compound": "O=C(O)c1cc(N=Nc2ccc(S(=O)(=O)Nc3ccccn3)cc2)ccc1O",
    "unitsSymbol": "%",
    "residual activity": 77
  },
  {
    "compound": "Oc1ccc(/C=C/c2cc(O)cc(O)c2)cc1",
    "unitsSymbol": "%",
    "residual activity": 59
  },
  {
    "compound": "CC(C)C[C@H](NC(=O)CNC(=O)c1cc(Cl)ccc1Cl)B1OC(=O)CC(CC(=O)O)(C(=O)O)O1 (stereo partly drawn)",
    "unitsSymbol": "%",
    "residual activity": 72
  },
  {
    "compound": "FC(F)(F)c1ccc(-c2ccc(Oc3cncc4sc(-c5nn[nH]n5)cc34)cc2)cc1",
    "unitsSymbol": "%",
    "residual activity": 89
  },
  {
    "compound": "Cc1nc(-c2ccc(OCC(C)C)c(C#N)c2)sc1C(=O)O",
    "unitsSymbol": "%",
    "residual activity": 103
  }
]

[a] Cc1ccc(-c2ccc3c(ccc4sc5c(c43)NC[C@@H](C)NC5=O)n2)cn1
[b] c1ccc2c(-c3cnn4cc(-c5ccc(N6CCNCC6)cc5)cnc34)ccnc2c1
Parameter metric = residual activity. Return the lower-valued option from a and b . Lab note: record the label of whichever item you select.
b
(b: 56%, a: 99%)

[a] COC(=O)/C=C/C(=O)OC
[b] NC(=O)c1cc(-c2ccnc(NC3CCCCC3)c2)nc(N2CCNCC2)c1
Parameter metric = residual activity. Return the lower-valued option from a and b . Lab note: record the label of whichever item you select.
b
